Reference source for all entries: patent US20220334101A1

System: liver
Assay: ECM (matrix) movement into liver wounds after electroporation injury, NHS-FITC matrix labelling
Type: in vivo, mouse
Conditions: inhibitors 10 μM i.p. 2 hours before surgery, organs harvested after 24 h, FITC in wound lysates
Where a SMILES comes first, the peptide text is derived from it.
METRIC_NAME: ECM (matrix) movement, liver

Below, each entry is followed by its recorded ECM (matrix) movement, liver result.
1. CN(C(=O)c1cc2ccccc2cc1C(=O)C(c1cccc2ccccc12)P(=O)(O)O)C1CCN(C(=O)c2ccccc2)CC1 (centres unmarked) | decreased
2. O=CN1CC/C(=C\c2ccc3c(c2)OCO3)C1=O | decreased
3. COC(=O)CCC(=O)N[C@@H](C)C(=O)N[C@@H](C)C(=O)N1CCC[C@H]1C(=O)N[C@@H](C)C(=O)CCl [elastase inhibitor II] (HELM PEPTIDE1{[COC(=O)CCC(=O)[*:2]].A.A.P.A.[ClC[*:1]]}$$$$V2.0) | increased
4. O=c1c(O)c(-c2ccc(O)c(O)c2)oc2cc(O)cc(O)c12 | decreased

Next molecule, ECM (matrix) movement, liver to be filled in.
Provide one value: measured ECM (matrix) movement, liver of CC(C)C[C@H](NC(=O)N[C@H](C(=O)N[C@@H](CCC(N)=O)C(=O)N[C@@H](C)C=O)[C@@H]1CCNC(=N)N1)C(=O)O
increased
